System: PCTK1
Construct: gene CDK16
Settings: concentration: 1 μM,replicates: in singlicate; n = 1;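 note: KINOMEscan kinase panel screen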
Each record is given T if its reported %Inh is strictly below 6%. Records at or above 6% are given F.

molecule: Cn1ccc2ncnc(Oc3ccc(NC(=O)Nc4cc(C(C)(C)C)on4)c(Cl)c3)c21
labelClass: F
//
molecule: CN(c1ccccc1CNc1nc(Nc2ccc3c(c2)CC(=O)N3)ncc1C(F)(F)F)S(C)(=O)=O
labelClass: F
//
molecule: COc1cccc(C2=C(Nc3cccc(Cl)c3)C(=O)NC2=O)c1
labelClass: F
//
molecule: C[C@@H]1CNc2c(sc3ccc4nc(-c5ccc(O)cc5)ccc4c23)C(=O)N1
labelClass: T
//
molecule: CCNCC(Cc1ccccc1)NC(=O)c1cc(Br)c(-c2ccnc3[nH]ccc23)s1.Cl.Cl (stereo not drawn)
labelClass: T
//
molecule: Cn1ccc2ncnc(Oc3ccc(NC(=O)Nc4cnn(C(C)(C)C)c4)c(Cl)c3)c21
labelClass: F
//
molecule: CC(=O)Nc1ccc(-c2cc3ncnc(SCC(=O)O)c3s2)cc1
labelClass: F
//
molecule: O=C1NCCc2[nH]c(-c3ccncc3)cc21
labelClass: T
//
molecule: O=C(Nc1n[nH]c2cc(-c3ccco3)ccc12)C1CC1
labelClass: F
//
molecule: COc1cc(Nc2nccc(N3CCC(NC(=O)c4cccc(C#N)c4)C3)n2)cc(OC)c1OC (stereo not drawn)
labelClass: T
//
molecule: C[C@@H](Oc1cc(-n2cnc3cc(-c4ccncc4)ccc32)sc1C(N)=O)c1ccccc1Cl
labelClass: T
//
molecule: Cn1ccc2ncnc(Oc3ccc(NC(=O)Nc4cccc(C(F)(F)F)c4)c(Cl)c3)c21
labelClass: T
//
molecule: N#Cc1cccc(C(=O)NC2CCN(c3ccnc(Nc4ccc(F)cc4)n3)C2)c1 (stereo not drawn)
labelClass: T
//
molecule: CN1CCN(CCNc2nc3cc(Oc4ccc(NC(=O)Nc5cc(C(F)(F)F)ccc5F)cc4)ccc3[nH]2)CC1.Cl.Cl
labelClass: T
//
molecule: Cn1ccc2ncnc(Oc3ccc(NC(=O)Nc4cccc(C(F)(F)F)c4)c(F)c3)c21
labelClass: T
//
molecule: C[C@@H]1CNc2c(sc3ccc4nc(-c5ccncc5)ccc4c23)C(=O)N1
labelClass: T
//
molecule: O=C(Nc1ccccc1)c1cccc(Oc2ccc3nccn3n2)c1
labelClass: T

###

Test system: MAK
Conditions: concentration: 1 μM,replicates: in singlicate; n = 1
Item-by-item account of %Inh
readout: %Inh (%)

molecule: CCOC(=O)N1CCC(n2cnc(-c3ccc(F)cc3)c2-c2ccnc(N)n2)CC1
recordedValue: 0
--
molecule: Cc1cccc2c(-c3ccncc3)c(-c3ccc(F)cc3)nn12.Cl
recordedValue: 26
--
molecule: N#Cc1cccc(C(=O)NC2CCN(c3ccnc(Nc4ccc(F)cc4)n3)C2)c1 (stereo not drawn)
recordedValue: 18
--
molecule: COc1cc2ncn(-c3cc(OCC4CCCCC4)c(C(N)=O)s3)c2cc1OC
recordedValue: 18
--
molecule: Cc1ccc(Nc2ccnc(Nc3ccc4c(c3)CS(=O)(=O)C4)n2)cc1O.Cl
recordedValue: 73
--
molecule: CCCC(=O)Nc1n[nH]c2ncccc12
recordedValue: 7
--
molecule: COc1cccc(OC)c1C(=O)Nc1cccc(-c2nn3ccccc3c2-c2ccnc(Nc3cccc(F)c3)n2)c1
recordedValue: 14
--
molecule: CC(=O)Nc1ccc(-c2cc3ncnc(SCC(=O)O)c3s2)cc1
recordedValue: 52
--
molecule: FC(F)(F)c1cc(Br)cc(Nc2nccc(-c3cnn4ncccc34)n2)c1
recordedValue: 55
